Entry source: ChEMBL document CHEMBL3433997

Target: Solute carrier family 2, facilitated glucose transporter member 1 (Homo sapiens) (UniProt P11166)
Sequence (P11166 whole entry): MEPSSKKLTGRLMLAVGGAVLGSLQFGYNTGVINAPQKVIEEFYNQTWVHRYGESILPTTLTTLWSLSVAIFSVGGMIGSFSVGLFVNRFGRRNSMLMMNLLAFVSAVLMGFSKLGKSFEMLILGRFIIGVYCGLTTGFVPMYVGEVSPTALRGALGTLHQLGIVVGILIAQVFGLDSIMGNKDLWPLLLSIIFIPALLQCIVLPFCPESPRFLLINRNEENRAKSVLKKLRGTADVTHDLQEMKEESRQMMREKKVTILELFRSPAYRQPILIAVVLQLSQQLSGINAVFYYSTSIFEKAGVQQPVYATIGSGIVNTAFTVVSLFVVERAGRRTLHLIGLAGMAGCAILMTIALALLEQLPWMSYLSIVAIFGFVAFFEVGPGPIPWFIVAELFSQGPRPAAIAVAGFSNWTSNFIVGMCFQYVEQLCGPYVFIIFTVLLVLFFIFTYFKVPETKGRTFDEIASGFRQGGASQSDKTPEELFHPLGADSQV
Assay: ST_JUDE_LEISH: Cytotoxicity at 2uM final concentration against transgenic Leishmania Mexicana promastigotes LmGLUT1 that are glucose transport deficient and complemented with the human glucose transporter GLUT1. Activity is measured by DNA content using SYBR green in vitro
Type: functional
recorded-metric: inhibition (%)
Write down the numeric answer in % and omit the unit.

Request: Value lookup for inhibition; key = O=C(Nc1cc(F)cc(F)c1)N1CCOC(CCN2CCC(c3ccccc3)CC2)(c2ccc(Cl)c(Cl)c2)C1 (stereo not given)
Response: 4.27

Request: Do the same for C=CCc1cccc(C)c1OCCCON1C(=N)N=C(N)NC1(C)C please
Response: 1.09

Request: Do the same for COc1cc2nc(C)nc(Nc3ccc(Cc4ccccc4)cc3)c2cc1OC please
Response: 4.72

Request: Do the same for COc1cc(Cc2cnc(N)nc2N)cc(OCCCCC2NC(=O)NC2=O)c1OC (stereo not given) please
Response: 14.8

Request: Do the same for O=C(Nc1ccc(-c2cccc(-c3nc4ccccc4[nH]3)c2)cc1)c1cnn2cccnc12 please
Response: 7.76

---

Target: Hexose transporter 1 (Plasmodium falciparum) (UniProt O97467)
Assay: ST_JUDE_LEISH: Cytotoxicity at 2uM final concentration against transgenic Leishmania Mexicana promastigotes LmPfHT that are glucose transport deficient and complemented with the Plasmodium falciparum hexose transporter. Activity is measured by DNA content using SYBR green in vitro
Type: functional
recorded-metric: inhibition
State the value with its unit after it.

Request: Value lookup for inhibition; key = COc1ccc(Nc2ncc3c(-c4cccc(NC(=O)Cc5cccnc5)c4)c[nH]c3n2)cc1OC
Response: -0.55%

Request: Do the same for O=C(/C=C/c1ccc(Cl)c(Cl)c1)N1CCC(CN2CCC(c3c[nH]c4ncccc34)CC2)CC1 please
Response: 3.52%

Request: Do the same for NCc1ccc(-c2cccc(CNC3CCN(Cc4ccccc4)CC3)c2)cc1 please
Response: 5.95%

Request: Do the same for CCCC(=O)Nc1ccc(OCCCN(Cc2ccccc2OC(F)(F)F)c2ccc(C#N)c(C(F)(F)F)c2)cc1 please
Response: 9.22%

Request: Do the same for COC(=O)CCCCOc1c(OC)cc(Cc2cnc(N)nc2N)cc1OC please
Response: 7.13%

Request: Do the same for Cc1cccc2nc(-c3cccc(-c4cccc(C(=O)N5CCCCC5CN5CCC(O)C5)c4)c3)[nH]c12 (configuration not stated) please
Response: 0.67%

Request: Do the same for O=C(Cc1c[nH]cn1)Nc1cccc(-c2ccc(-c3nc4cc(F)ccc4[nH]3)s2)c1 please
Response: 6.17%

---

Biological target: Glucose transporter (Leishmania mexicana)
Experiment: ST_JUDE_LEISH: Cytotoxicity at 2uM final concentration against transgenic Leishmania Mexicana promastigotes LmGT2 that are glucose transport deficient and complemented with the L. Mexicana glucose transporter 2. Activity is measured by DNA content using SYBR green in vitro
Type: functional
recorded-metric: inhibition (%)
Write down the numeric answer in % and omit the unit.

Request: Kindly state the measured inhibition obtained for CN(C)c1nc2cc(-n3cnc4cc(-c5ccc(Cl)cc5)sc4c3=O)ccc2n1CCCN1CCCC1 with Glucose transporter (Leishmania mexicana).
Response: 6.91

Request: Do the same for OCC(CO)(CO)NCc1ccc2c3c(cccc13)-c1ccccc1-2 please
Response: 8.44

Request: Do the same for N=C1NC(=N)N(OCCCCCCON2C(=N)NC(=N)NC2C=Cc2ccccc2)C(C=Cc2ccccc2)N1 (centres undefined) please
Response: 10.7

Request: Do the same for COc1cc(OC)cc(-c2nn(-c3ccc([N+](=O)[O-])cc3Cl)c(=S)n2CC2CCCO2)c1 (centres undefined) please
Response: 2.53

---

Biological target: Solute carrier family 2, facilitated glucose transporter member 1 (Homo sapiens)
Assay: ST_JUDE_LEISH: Cytotoxicity at 2uM final concentration against transgenic Leishmania Mexicana promastigotes LmGLUT1 that are glucose transport deficient and complemented with the human glucose transporter GLUT1. Activity is measured by DNA content using SYBR green in vitro
Type: functional
recorded-metric: inhibition
State the value with its unit after it.

Request: Value lookup for inhibition; key = Cn1nccc1C(=O)NCCNCc1cccc(-c2ccc(-c3nc4cc(C(F)(F)F)ccc4[nH]3)cc2)c1
Response: -3.3%

Request: Do the same for CC(C#N)Cc1ccc(-c2cnc(N)c3cc(-c4ccnc(N)n4)ccc23)cc1 (stereo not drawn) please
Response: 5.38%

Request: Do the same for N#CC(CC(=O)c1ccc(Cl)cc1)c1cccc(F)c1 (stereo not drawn) please
Response: 1.46%

Request: Do the same for c1ccc(Oc2ccc(Nc3ccnc(Nc4cccc(CNCCCN5CCOCC5)c4)n3)cc2)cc1 please
Response: -3.58%

Request: Do the same for CCC[C@@H]([C@@H](CC1CCCCC1)C(=O)N[C@H](C(=O)Nc1nccs1)C(C)(C)SC)N(O)C=O please
Response: 9.33%

Request: Do the same for O=C(/C=C/c1ccc(Cl)c(Cl)c1)NC1CCN(CCCNC(=O)c2cccc(Cl)c2)CC1 please
Response: 6.07%

Request: Do the same for COC(=O)c1ccc(NC(=O)Nc2ccc(Cn3ncc(N4CCCNCC4)c(Cl)c3=O)cc2)cc1 please
Response: -0.9%

Request: Do the same for Cc1ccc(C(=O)Nc2ccc(-c3nc4ccccc4[nH]3)cc2)cc1S(=O)(=O)N1CCOCC1 please
Response: 2.29%

Request: Do the same for COc1cc(NCC(CN)Cc2ccc3c(c2)OCO3)nc2ccccc12 (stereo not drawn) please
Response: 4.7%

Request: Do the same for COc1cccc(Nc2c(C(N)=O)cnc3ccc(-c4ccccc4)cc23)c1 please
Response: 0.37%

Request: Do the same for CCCN(CCC)CCOc1ccc(C(O)(C#CC(O)(c2ccc(OCCN(CCC)CCC)cc2)c2cccc(Cl)c2)c2cccc(Cl)c2)cc1 (stereo not drawn) please
Response: 7.1%

Request: Do the same for OC1CCN(c2cc(-c3ccccn3)nc(-c3ccccn3)n2)CC1 please
Response: -1.43%

Request: Do the same for COc1ccc(CNCc2ccc(-c3cccc(-c4nc5cc(C(F)(F)F)ccc5[nH]4)c3)cc2)cc1 please
Response: -1.07%

---

Target: Hexose transporter 1 (Plasmodium falciparum) (UniProt O97467)
Test: ST_JUDE_LEISH: Cytotoxicity at 2uM final concentration against transgenic Leishmania Mexicana promastigotes LmPfHT that are glucose transport deficient and complemented with the Plasmodium falciparum hexose transporter. Activity is measured by DNA content using SYBR green in vitro
Assay type: functional
recorded-metric: inhibition (%)
Write down the numeric answer in % and omit the unit.

Request: Kindly state the measured inhibition obtained for CCCNC(=O)Nc1cc2cc(-c3cccc(CN4CCCCC4)c3)ccc2n2c(C)nnc12 with Hexose transporter 1 (Plasmodium falciparum) (UniProt O97467).
Response: 1.3

Request: Do the same for O=C(c1ccc(F)c2ccccc12)N1CCc2cc3nccc(N4CCN5CCC[C@H]5C4)c3cc21 please
Response: 1.16

Request: Do the same for COc1ccc2c(=NN=Cc3cccc(Cl)c3)cc(C)[nH]c2c1 please
Response: 0.71

Request: Do the same for COc1ccc(CNC2CCN(C)CC2)cc1-c1ccc(S(=O)(=O)NC2CCC2)c(F)c1 please
Response: 0.39

Request: Do the same for CC1CCC(C(C)C)C(OC(=O)CSc2nnc3c(n2)[nH]c2ccccc23)C1 (stereo unspecified) please
Response: -0.14

Request: Do the same for COc1cc(F)c2ncc(Cl)c([C@@H](O)CN3CCC(NCc4cc5c(cn4)OCCO5)CC3)c2c1 please
Response: 8.83

Request: Do the same for CC(C)[C@@H](NC(=O)NC1CCC(CCN2C3CCC2CC(OC(=O)C(CO)c2ccccc2)C3)CC1)C(O)(c1ccccc1)c1ccccc1 (stereo partly specified) please
Response: 8.36

Request: Do the same for Cn1cccc1C(=O)NCC(CCNc1cc(=O)c2ccccc2[nH]1)NCc1cc(Br)cc(Br)c1 (stereo unspecified) please
Response: 2.6

Request: Do the same for Cc1ccccc1C1CCN(C2CCC(NC(=O)/C=C/c3cc(F)cc(F)c3)CC2)CC1 (stereo unspecified) please
Response: -0.51

Request: Do the same for O=S(=O)(NC1CCN(c2ccnc3ccccc23)C1)c1ccc(OC(F)(F)F)cc1 (stereo unspecified) please
Response: -0.51

Request: Do the same for Cc1c(-c2cccc(C(C)(C)NC3CCN(Cc4ccccc4)CC3)c2)cnc(N)c1C please
Response: 0.02

Request: Do the same for CN(C)c1cccc(-c2cnc3ccc(NCc4cccc(Cl)c4)nn23)c1 please
Response: 2.01

Request: Do the same for FC(F)(F)c1ccc2[nH]c(-c3ccc(-c4cccc(CNCCc5cccnc5)c4)s3)nc2c1 please
Response: 2.04

Request: Do the same for COc1c(C2CCN(CCCCNC(=O)c3cc(-c4ccc(Cl)cc4)oc3C)CC2)ccc2c1CCCC2 please
Response: 9.78

Request: Do the same for O=C(Cc1ccccc1)NC1CCN(c2ccnc3cc(Cl)ccc23)C1 (stereo unspecified) please
Response: 2.03

Request: Do the same for CCCCN1C(=O)C2CC(=O)CC(C3CCCCC3)C2C1=O (stereo unspecified) please
Response: 0.42

Request: Do the same for CCOc1ccc2[nH]c(C)cc(=NN=Cc3ccncc3)c2c1 please
Response: 0.8

Request: Do the same for CN(C)CCOc1cc(NC(=O)c2ccc(-c3ccc(Cl)cc3Cl)cc2)ccc1-c1ccccc1 please
Response: 0.95

Request: Do the same for N#Cc1cc([N+](=O)[O-])ccc1-n1nc(-c2cccc(Cl)c2)n(Cc2ccco2)c1=S please
Response: 1.56

Request: Do the same for COc1cc(-c2nc3ccc(N4CCN(C)CC4)cc3[nH]2)cc(OC)c1OC please
Response: 2.62

Request: Do the same for CN(CCN)Cc1cccc(-c2ccc(-c3nc4cc(C(F)(F)F)ccc4[nH]3)s2)c1 please
Response: 11.3

Request: Do the same for CN(C)c1ccc(CN2CCC(NC(=O)c3ccc(-c4cccc(C(F)(F)F)c4)s3)CC2)cc1 please
Response: -0.72

Request: Do the same for COc1cc2c(cc1OCCN1CCC(N3CCCCC3)CC1)N(C(=O)/C=C/c1ccccc1OC(F)(F)F)CC2 please
Response: 5.04

Request: Do the same for O=C(NCCN1CCC(c2ccncc2)CC1)c1cccc(Nc2nccc(Nc3ccc(Oc4ccccc4)cc3)n2)c1 please
Response: -0.29

Request: Do the same for CC(C)c1cc(C(=O)N[C@@H](Cc2ccccc2)[C@H](O)CNC2CCCCC2)cc(N2CCCC2=O)c1 please
Response: 1.07

Request: Do the same for COc1cc2ncnc(Nc3ccc(OCc4ccccc4Br)c(OC)c3)c2cc1OC please
Response: 0.69
